- Test system: catalytic domain of Human PARP (Homo sapiens)
- Construct: The catalytic domain of Human PARP was cloned and prepared; made in house
- Protocol: Biacore surface plasmon resonance affinity assay
- Type: binding
- Test settings: pKD=-log10 KD, KD in mol/L; Biacore T100, 25° C.; read-out: pKD (converted)
Experimental endpoint: Kd

{"columns": ["Molecule", "Kd"],
 "data": [
  ["CC1Oc2cc(CN3CCC(c4ccc(C(=O)O)cc4)CC3)ccc2NC1=O (stereo not shown)", "12.6 to 79.4 µM"]
]}

Please give the documented Kd of COC(=O)c1ccc(N2CCN(Cc3ccc4c(c3)NC(=O)C(C)O4)CC2)cc1 (stereo not shown)
≤ 0.01 µM

Please give the documented Kd of CC1Oc2ccc(CN3CCC(N(C4CC4)S(=O)(=O)c4ccccc4)CC3)cc2NC1=O (stereo not shown)
1.26 to 10 µM

Please give the documented Kd of CCOC(=O)CN(C)Cc1ccc2c(c1)NC(=O)C(C)O2 (stereo not shown)
12.6 to 79.4 µM

----------
- Test system: catalytic domain of Human PARP (Homo sapiens)
- Construct: The catalytic domain of Human PARP was cloned and prepared; made in house
- Protocol: Biacore surface plasmon resonance affinity assay
- Assay type: binding
- Test settings: pKD=-log10 KD, KD in mol/L; Biacore T100, 25° C.; read-out: pKD (converted)
Experimental endpoint: Kd

Consider the reported Kd for these molecules:
{"columns": ["Molecule", "Kd"],
 "data": [
  ["CC1Oc2ccc(CN(C)c3ccccn3)cc2NC1=O (stereo not drawn)", "12600 to 79400 nM"],
  ["CC1Oc2ccc(CN(C)Cc3ccc(-c4ccccc4)cc3)cc2NC1=O (stereo not drawn)", "126 to 1000 nM"],
  ["CC1Oc2ccc(CN3CCC(N(C)C)CC3)cc2NC1=O (stereo not drawn)", "12.6 to 100 nM"]
]}

Give the observed Kd of O=C1Nc2cc(CN3CC=C(c4ccccc4)CC3)ccc2OC1F (stereo not drawn) for catalytic domain of Human PARP (Homo sapiens).
12.6 to 100 nM

Give the observed Kd of CC1Oc2ccc(CN(C)Cc3cccnc3)cc2NC1=O (stereo not drawn) for catalytic domain of Human PARP (Homo sapiens).
12600 to 79400 nM

----------
- Test system: catalytic domain of Human PARP (Homo sapiens, UniProt P09874)
- Construct: The catalytic domain of Human PARP was cloned and prepared; made in house
- Sequence (P09874 788-1014 limits assumed): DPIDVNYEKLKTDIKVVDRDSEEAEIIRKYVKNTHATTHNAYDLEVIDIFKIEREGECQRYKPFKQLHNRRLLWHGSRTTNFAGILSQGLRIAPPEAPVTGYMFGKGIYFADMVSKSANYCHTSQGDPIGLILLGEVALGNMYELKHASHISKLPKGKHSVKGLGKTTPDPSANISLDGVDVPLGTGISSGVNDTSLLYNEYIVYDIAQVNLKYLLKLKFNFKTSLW
- Protocol: Biacore surface plasmon resonance affinity assay
- Format: binding
- Test settings: pKD=-log10 KD, KD in mol/L; Biacore T100, 25° C.; read-out: pKD (converted)
# reported Kd; entries follow

Consider the reported Kd for these compounds:
{"columns": ["Compound", "Kd"],
 "data": [
  ["COc1cc(CN2CCN(c3ccc(C(=O)NC(C)C)cc3)CC2)cc2c1OC(C)C(=O)N2 (centres unmarked)", "< 31.6 nM"],
  ["COc1cc(CN2CCC(c3ccccc3)CC2)cc2c1OC(C)C(=O)N2 (centres unmarked)", "12.6 to 100 nM"],
  ["CC1Oc2ccc(CN3Cc4ccccc4C3)cc2NC1=O (centres unmarked)", "126 to 1000 nM"],
  ["CC1Oc2ccc(CN3Cc4ccc(NC(=O)C5CC5)cc4C3)cc2NC1=O (centres unmarked)", "1260 to 10000 nM"]
]}

--- query ---
Please give the documented Kd of CC1Oc2ccc(CN3CCN(CCO)CC3)cc2NC1=O (centres unmarked)
12600 to 79400 nM
